# ASSAYED_SYSTEM: IDH1^R132H homodimer enzyme (Homo sapiens, UniProt O75874, R132H)
# Sequence (O75874 whole entry R132H): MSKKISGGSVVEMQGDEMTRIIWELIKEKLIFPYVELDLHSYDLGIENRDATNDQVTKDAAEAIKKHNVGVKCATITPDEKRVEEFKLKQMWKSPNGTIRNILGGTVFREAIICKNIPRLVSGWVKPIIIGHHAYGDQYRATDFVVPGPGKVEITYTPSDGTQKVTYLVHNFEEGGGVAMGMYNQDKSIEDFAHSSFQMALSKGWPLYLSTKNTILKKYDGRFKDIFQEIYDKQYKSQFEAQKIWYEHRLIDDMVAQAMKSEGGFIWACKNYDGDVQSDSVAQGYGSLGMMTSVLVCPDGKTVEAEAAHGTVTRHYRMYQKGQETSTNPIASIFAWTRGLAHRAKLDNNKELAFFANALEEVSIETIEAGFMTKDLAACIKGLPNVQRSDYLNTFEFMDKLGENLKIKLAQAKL
# ASSAY_PROTOCOL: NADPH depletion assay, IDH1 R132H
REPORTED_METRIC: pIC50
To interpret pIC50, take it as minus log10 of a concentration measured in moles per litre.

Below, each entry is followed by its recorded pIC50 result.
| COMPOUND | pIC50 |
| --- | --- |
| C[C@H](Nc1cc2c(ccc(=O)n2CC(C)(C)C)cn1)c1ccc(CN2CCCC(F)(F)C2)cc1 [cpd 235] | 6.89 |
| CC(C)[C@H](C)n1c(=O)ccc2cnc(N[C@@H](C)c3ccc(OC4CCN(C(=O)OCc5ccccc5)CC4)cc3)nc21 [cpd 146] | 7.23 |
| C[C@H](Nc1ncc2ccc(=O)n([C@@H](C)C3CCCCC3)c2n1)c1ccc(CN2CCCC(F)(F)C2)cc1 [cpd 66] | 6.79 |
| CC[C@@H](C)n1c(=O)ccc2cnc(N[C@@H](C)c3ccc(CN4CCCC(F)(F)C4)cc3)nc21 [cpd 149] | 7.07 |

Then this compound:
Query: Provide pIC50 value for the following compound: C[C@H](Nc1ncc2ccc(=O)n(CC(C)(C)C)c2n1)c1ccc(CN2CCC(F)(F)CC2)c(F)c1 [cpd 94]
Response: 7.15

Cited source for all entries: patent US12018023B2
